Data provenance: ChEMBL document CHEMBL4138287

Test system: Herpesviridae sp.
Assay: Antiviral activity against Herpes simplex virus infected in African green monkey Vero cells measured at 24 hrs post infection at 2 mins interval for 25 times
Format: functional, organism-based
MEASURED_ENDPOINT: IC50 (µM)

[A] CCCCCCCCCc1cc2c(-c3oc4cc(O)cc(O)c4c(=O)c3O[C@@H]3O[C@H](CO)[C@H](O)[C@H](O)[C@H]3O)ccc(O)c2o1
[B] CCCCCCCCCc1oc2c(O)ccc(-c3oc4cc(O)cc(O)c4c(=O)c3O[C@@H]3O[C@H](CO)[C@H](O)[C@H](O)[C@H]3O)c2c1C=O
INPUT: // compare: A vs B , metric IC50, want the smaller Identify your selection by its label.
OUTPUT: B
(B: 23.5 µM, A: 57.7 µM)
